plant injury at 125 g/ha values by entry
Tested on: Brassica napus (BRSNN, rape)
protocol text: Test 1B glasshouse assay for herbicidal activity, post-emergence
Type: in vivo
particulars: 360 h, 125 g/ha application rate

molecule	assay target	readout unit	plant injury at 125 g/ha
Cc1cc(C)c(C2C(=O)C3CCC(C3)C2=O)c(C)c1 (centres unmarked) [Compound X-9, reference compound]	Brassica napus (BRSNN, rape)	%	20
CC#Cc1cc(C)c(C2C(=O)CC(c3ccccn3)CC2=O)c(C)c1 (centres unmarked) [Compound A-13]	Brassica napus (BRSNN, rape)	%	70
CC#Cc1cc(Cl)c(C2C(=O)C3CCC(C3)C2=O)c(OCC)c1 (centres unmarked) [Compound A-16]	Brassica napus (BRSNN, rape)	%	50
CC#Cc1cc(Cl)c(C2C(=O)C3CCC(C3)C2=O)c(OC)c1 (centres unmarked) [Compound A-12]	Brassica napus (BRSNN, rape)	%	80
CC#Cc1cc(C)c(C2C(=O)C3CCC(C3)C2=O)c(C)c1 (centres unmarked) [Compound A-5]	Brassica napus (BRSNN, rape)	%	80
CC#Cc1cc(C)c(C2=C(OC(=O)OC)CC(c3ccccn3)CC2=O)c(C)c1 (centres unmarked) [Compound A-14]	Brassica napus (BRSNN, rape)	%	70
CC#Cc1cc(C)c(C2=C(OC(C)=O)CC(c3ccccn3)CC2=O)c(C)c1 (centres unmarked) [Compound A-15]	Brassica napus (BRSNN, rape)	%	70
CC#Cc1cc(C)c(C2C(=O)C3CCC(C3)C2=O)c(OC)c1 (centres unmarked) [Compound A-10]	Brassica napus (BRSNN, rape)	%	60

* * *

Tested on: Abutilon theophasti Medik. (ABUTH)
protocol text: Test 1A glasshouse assay for herbicidal activity, post-emergence
Type: in vivo
particulars: 312 h, 250 g/ha, evaluated after 13 days, read-out: percentage phytotoxicity ABUTH

compound	readout unit	pest or weed control at 250 g/ha
CC#Cc1cc(Cl)c(C2C(=O)CCCC2=O)c(OC)c1 [Compound A-22]	%	70
CC#Cc1cc(Cl)c(C2C(=O)C3CCC(C)(C2=O)C3(C)C)c(OC)c1 (centres unmarked) [Compound A-17]	%	10
CC#Cc1cc(Cl)c(C2C(=O)CC(CCSC)CC2=O)c(OC)c1 (centres unmarked) [Compound A-23]	%	70
CC#Cc1cc(C)c(C2=C(OC(=O)OC)CC(c3ccccn3)CC2=O)c(C)c1 (centres unmarked) [Compound A-14]	%	80
CC#Cc1ccc(C2C(=O)C3CCC(C3)C2=O)c(Cl)c1 (centres unmarked) [Compound A-11]	%	80

* * *

Test system: Alopecurus myosuroides (ALOMY)
protocol text: Biological Example 2 comparative herbicidal data, post-emergence glasshouse screen
Format: in vivo
particulars: 312 h, 15.625 g/ha application rate, read-out: Post-emergence herbicidal activities (percentage phytotoxicity) ALOMY
pest or weed control at 15.625 g/ha reference
assay metric: pest or weed control at 15.625 g/ha (%)

compound	readout number
Cc1cc(C#CCl)cc(C)c1C1C(=O)CC(CC2CCOCC2)CC1=O (centres unmarked)	70
C#Cc1cc(C)c(C2C(=O)C3CCC(C3)C2=O)c(C)c1 (centres unmarked) [Compound X-2, reference compound]	0
Cc1cc(C#CCl)cc(C)c1C1C(=O)C2CCC(C2)C1=O (centres unmarked)	70
CC#Cc1cc(C)c(C2C(=O)CC(CC3CCOCC3)CC2=O)c(C)c1 (centres unmarked)	80
C#Cc1ccc(C2C(=O)C(C)(C)OC(C)(C)C2=O)c(C)c1 [Compound X-1, reference compound]	20
C#Cc1cc(C)c(C2C(=O)CC(CC3CCOCC3)CC2=O)c(C)c1 (centres unmarked) [Compound X-3, reference compound]	30
CC#Cc1ccc(C2C(=O)C(C)(C)OC(C)(C)C2=O)c(C)c1	10
Cc1cc(C#CCl)ccc1C1C(=O)C(C)(C)OC(C)(C)C1=O	30

* * *

pest or weed control at 250 g/ha reference
System: SORVU (Sorghum bicolor (L.) Moench ssp. Bicolor, or Sorghum vulgare Pers.)
protocol text: Test 1B glasshouse assay for herbicidal activity, pre-emergence
Type: in vivo
particulars: 480 h, 250 g/ha, 20 DAA, read-out: percentage phytotoxicity SORVU

molecule	pest or weed control at 250 g/ha / %
CC#Cc1cc(Cl)c(C2C(=O)C3CCC(C3)C2=O)c(OCC)c1 (centres unmarked)	80
CC#Cc1cc(C)c(C2=C(OC(=O)OC)CC(c3ccccn3)CC2=O)c(C)c1 (centres unmarked)	80
CC#Cc1cc(Cl)c(C2C(=O)C3CCC(C3)C2=O)c(OC)c1 (centres unmarked)	90
CC#Cc1cc(C)c(C2C(=O)CC(c3ccccn3)CC2=O)c(C)c1 (centres unmarked)	80
CC#Cc1cc(Cl)c(C2C(=O)C3CCC(C)(C2=O)C3(C)C)c(OC)c1 (centres unmarked)	50

* * *

Test system: Abutilon theophasti Medik. (ABUTH)
protocol text: Test 1A glasshouse assay for herbicidal activity, post-emergence
Type: in vivo
particulars: 312 h, 30 g/ha, evaluated after 13 days, read-out: percentage phytotoxicity ABUTH
Overview of recorded pest or weed control at 30 g/ha for various molecules

molecule	assay target	pest or weed control at 30 g/ha (%)
CC#Cc1cc(Cl)c(C2=C(OC(=O)C(C)(C)C)C3CCC(C3)C2=O)c(OC)c1 (stereo not shown) [Compound P-7]	Abutilon theophasti Medik. (ABUTH)	10
CC#Cc1cc(C)c(C2=C(OC(C)=O)CC(c3ccccn3)CC2=O)c(C)c1 (stereo not shown) [Compound A-15]	Abutilon theophasti Medik. (ABUTH)	20
C#Cc1cc(C)c(C2C(=O)CC(c3ccccn3)CC2=O)c(C)c1 (stereo not shown) [Compound X-4, reference compound]	Abutilon theophasti Medik. (ABUTH)	0
CC#Cc1cc(C)c(C2C(=O)C3CCC(C3)C2=O)c(C)c1 (stereo not shown) [Compound A-5]	Abutilon theophasti Medik. (ABUTH)	0

* * *

Tested on: Avena fatua (AVEFA)
protocol text: Test 1B glasshouse assay for herbicidal activity, pre-emergence
Type: in vivo
particulars: 480 h, 250 g/ha, 20 DAA, read-out: percentage phytotoxicity AVEFA
One threshold, 40%, splits the recorded pest or weed control at 250 g/ha values: lower ones are fulfilled, equal or higher ones are not fulfilled.

compound	label
CC#Cc1cc(Cl)c(C2C(=O)C3CCC(C)(C2=O)C3(C)C)c(OC)c1 (centres unmarked)	not fulfilled
CC#Cc1cc(C)c(C2C(=O)CC(c3ccccn3)CC2=O)c(C)c1 (centres unmarked)	fulfilled
CC#Cc1cc(C)c(C2=C(OC(=O)OC)CC(c3ccccn3)CC2=O)c(C)c1 (centres unmarked)	not fulfilled
CC#Cc1cc(Cl)c(C2C(=O)C3CCC(C3)C2=O)c(OC)c1 (centres unmarked)	not fulfilled

* * *

Test system: Echinochloa crus-galli (ECHCG)
protocol text: Test 1B glasshouse assay for herbicidal activity, post-emergence
Type: in vivo
particulars: Echinochloa crus-galli, 30 g/ha application rate
assay metric: pest or weed control at 30 g/ha (%)

molecule	assay metric	readout number
CC#Cc1cc(Cl)c(C2C(=O)C3CCC(C3)C2=O)c(OC)c1 (stereo not drawn) [Compound A-12]	pest or weed control at 30 g/ha	90
CC#Cc1cc(C)c(C2C(=O)CC(CC3CCOCC3)CC2=O)c(C)c1 (stereo not drawn) [Compound A-9]	pest or weed control at 30 g/ha	100
Cc1cc(C#CCl)cc(C)c1C1C(=O)C2CCC(C2)C1=O (stereo not drawn) [Compound A-6]	pest or weed control at 30 g/ha	90
CC#Cc1cc(C)c(C2=C(OC(C)=O)CC(c3ccccn3)CC2=O)c(C)c1 (stereo not drawn) [Compound A-15]	pest or weed control at 30 g/ha	80
CC#Cc1cc(C)c(C2C(=O)C3CCC(C3)C2=O)c(OC)c1 (stereo not drawn) [Compound A-10]	pest or weed control at 30 g/ha	90
CC#Cc1cc(C)c(C2=C(OC(=O)OC)CC(c3ccccn3)CC2=O)c(C)c1 (stereo not drawn) [Compound A-14]	pest or weed control at 30 g/ha	80
Cc1cc(C#CCl)cc(C)c1C1C(=O)CC(CC2CCOCC2)CC1=O (stereo not drawn) [Compound A-8]	pest or weed control at 30 g/ha	100
CC#Cc1cc(Cl)c(C2C(=O)C3CCC(C3)C2=O)c(OCC)c1 (stereo not drawn) [Compound A-16]	pest or weed control at 30 g/ha	80
CC#Cc1cc(C)c(C2C(=O)C3CCC(C3)C2=O)c(C)c1 (stereo not drawn) [Compound A-5]	pest or weed control at 30 g/ha	100

* * *

Tested on: Setaria faberi (SETFA)
protocol text: Test 1A glasshouse assay for herbicidal activity, post-emergence
Format: in vivo
particulars: 312 h, 250 g/ha, evaluated after 13 days, read-out: percentage phytotoxicity SETFA
Procedure: Seeds of a variety of test species were sown in standard soil in pots. […] After 13 days for pre and post-emergence, the test was evaluated visually for percentage phytotoxicity to the plant (where 100=total damage to plant; 0=no damage to plant). […]

molecule	pest or weed control at 250 g/ha
CC#Cc1cc(Cl)c(C2C(=O)C3CCC(C3)C2=O)c(OC)c1 (stereo not drawn) [Compound A-12]	100%
C#Cc1cc(C)c(C2C(=O)CC(c3ccccn3)CC2=O)c(C)c1 (stereo not drawn) [Compound X-4, reference compound]	100%
CC#Cc1cc(C)c(C2C(=O)C3CCC(C3)C2=O)c(OC)c1 (stereo not drawn) [Compound A-10]	100%
Cc1cc(C#CCl)cc(C)c1C1C(=O)C2CCC(C2)C1=O (stereo not drawn) [Compound A-6]	90%
CC#Cc1cc(Cl)c(C2=C(OC(=O)c3ccc(Cl)cc3)CC(C3CCOCC3)CC2=O)c(OC)c1 (stereo not drawn) [Compound P-3]	100%
CC#Cc1cc(C)c(C2C(=O)C3CCC(C3)C2=O)c(C)c1 (stereo not drawn) [Compound A-5]	100%
C#Cc1cc(Cl)c(C2C(=O)CC3(CCOCC3)CC2=O)c(OC)c1 [Compound B-1]	100%
CC#Cc1cc(Cl)c(C2C(=O)C3CCC(C)(C2=O)C3(C)C)c(OC)c1 (stereo not drawn) [Compound A-17]	90%
CC#Cc1cc(Cl)c(C2=C(OC(=O)C(C)(C)C)C3CCC(C3)C2=O)c(OC)c1 (stereo not drawn) [Compound P-7]	100%
CC#Cc1cc(C)c(C2C(=O)CC(CC(C)SC)CC2=O)c(C)c1 (stereo not drawn) [Compound A-24]	100%
C#Cc1cc(Cl)c(C2C(=O)CCCC2=O)c(OC)c1 [Compound B-2]	90%
CC#Cc1cc(C)c(C2=C(OS(C)(=O)=O)CC(CC3CCOCC3)CC2=O)c(C)c1 (stereo not drawn) [Compound P-4]	80%
CC#Cc1cc(Cl)c(C2C(=O)CC(CCSC)CC2=O)c(OC)c1 (stereo not drawn) [Compound A-23]	100%
CC#Cc1cc(Cl)c(C2=C(OC(=O)SCC)C3CCC(C3)C2=O)c(OCC(F)(F)F)c1 (stereo not drawn) [Compound P-6]	50%
Cc1cc(C#CCl)cc(C)c1C1C(=O)CC(CC2CCOCC2)CC1=O (stereo not drawn) [Compound A-8]	90%
Cc1cc(C#CCl)ccc1C1C(=O)C(C)(C)OC(C)(C)C1=O [Compound A-7]	80%
CC#Cc1cc(C)c(C2=C(OC(C)=O)CC(c3ccccn3)CC2=O)c(C)c1 (stereo not drawn) [Compound A-15]	100%
CC#Cc1cc(C)c(C2C(=O)C3CCC(C3)C2=O)c(CCC)c1 (stereo not drawn) [Compound A-3]	90%
